Tested on: MCF7 breast
Assay: NCI-60 one-dose screen, 48 h
Details: 10 µM
Compounds without any hit were thinned out: in the full panel of roughly 83,000, 20% have a hit. Calls of active or inactive are those of the source. Rule for the calls: active = growth percent below 10; inactive = the rest.
Parameter call: string, one of 1.0 (active), 0.0 (inactive)

[[record]]
compound = "Cc1cc(N(CCCNc2ccnc3cc(Cl)ccc23)Cc2ccc3c(c2)OCO3)nc(N2CCCCC2)n1"
assignedlabel = 1.0

[[record]]
compound = "Cc1ccc(C(=O)N2C/C(=C/c3ccccc3)C(=O)/C(=C/c3ccccc3)C2)cc1"
assignedlabel = 1.0

[[record]]
compound = "COc1cccc(C2C3=C(COC3=O)N(CCO)c3cc(OC)ccc32)c1 (stereo not given)"
assignedlabel = 0.0

[[record]]
compound = "Nc1c(C(=O)Nc2cccc(Br)c2)sc2nc3c(cc12)C(O)CCC3 (stereo not given)"
assignedlabel = 0.0

[[record]]
compound = "C=C(NC(=O)C(=C)NC(=O)c1csc(C2=NC3c4csc(n4)C4NC(=O)c5csc(n5)C(C(C)(O)C(C)O)NC(=O)C5CSC(=N5)/C(=C/C)NC(=O)C(C(C)O)NC(=O)c5csc(n5)C3(CC2)NC(=O)C(C)NC(=O)C(=C)NC(=O)C(=C)NC(=O)C(C(C)C)NC2C=Cc3c(C(C)O)cc(nc3C2O)C(=O)OC4C)n1)C(N)=O (stereo not given)"
assignedlabel = 0.0


Now for a further compound.
Hi, sorry to bother you, what did the test record for COc1cc(Cl)cc(-c2nn(-c3cccc(NC(=O)Nc4cc(C(F)(F)F)cc(C(F)(F)F)c4)c3)cc2-c2ccncc2)c1 ?
1.0

###

Tested on: SN12C renal
Assay: NCI-60 one-dose screen, 48 h (100 = growth as untreated, 0 = no growth, -100 = all killed)
Settings: 10 µM
Compounds without any hit were thinned out: in the full panel of roughly 83,000, 20% have a hit. Calls of active or inactive are those of the source. Rule for the calls: active = growth percent below 10; inactive = the rest.
Reported growth values are given for each entry in this list.

Sample records with growth:
[[record]]
molecule = "COc1ccc(/C=C2/CN(C(=O)c3ccc(C)cc3)C/C(=C\\c3ccc(OC)cc3)C2=O)cc1"
testsystem = "SN12C renal"
result = "90.7% (inactive)"

[[record]]
molecule = "COc1cc(-c2cc(C(=O)N3CCN(C(=O)c4ccccc4NCc4cccs4)CC3)nc3cc(-c4ccccc4)nn23)cc(OC)c1OC"
testsystem = "SN12C renal"
result = "87.5% (inactive)"

[[record]]
molecule = "COc1cccc(Cn2c(-c3nonc3N)nc3ccccc32)c1"
testsystem = "SN12C renal"
result = "43.8% (inactive)"

[[record]]
molecule = "CSc1cc(SC)ncn1"
testsystem = "SN12C renal"
result = "94.4% (inactive)"


Next:
Please report the recorded growth for COc1cc(-c2nc(-c3nnc(-c4ccc(F)c(Cl)c4)o3)c3ccccn23)cc(OC)c1OC .
43.9% (inactive)

###

Tested on: NCI-H226 lung
Experiment: NCI-60 one-dose screen, 48 h (100 = growth as untreated, 0 = no growth, -100 = all killed)
Details: 10 µM
This is part of a sample that, as a whole, favours compounds with a hit. Of some 83,000 tested, about 20% had one in any assay.
assayMetric: growth (%)
Note: unit % is implicit; provide only the numeric part.

Worked set:
[[record]]
molecule = "COc1cc(-c2cc(C(=O)N3CCN(C(=O)c4ccccc4NCc4ccco4)CC3)nc3cc(-c4ccccc4)nn23)cc(OC)c1OC"
assaymetric = "growth"
quantitativeresult = 57

[[record]]
molecule = "CCOC(=O)C(=Cc1ccc(Br)cc1)C(=O)OCC"
assaymetric = "growth"
quantitativeresult = -33.6

[[record]]
molecule = "O=C1ON=[N+](c2ccc(Cc3ccc([N+]4=NOC(=O)C4CN4CCOCC4)cc3)cc2)C1CN1CCOCC1 (stereo unspecified)"
assaymetric = "growth"
quantitativeresult = 85.5


Name the recorded growth for Cn1c([N+](=O)[O-])cnc1/C=C1\Oc2ccccc2C1=O .
-7.33

Repeat for the following molecule: CN(CCc1ccccn1)c1ccccc1
113

For CN1CCC(CNc2cc(C3(C(=O)Nc4cc(C(=O)Nc5ccc(Cl)c(C(F)(F)F)c5)ccc4F)CC3)ncn2)CC1 then?
72.5

Also COc1cc(/C=C\c2cc(OC)c(OC)c(OC)c2)cc(NS(=O)(=O)c2ccc(Cl)cc2)c1OC , if possible.
33.9

Likewise for COc1cc2nc(Nc3cccc(C(=O)O)c3)nc(N)c2cc1OC ?
91.4

Item: NC(=O)SCC(=O)Nc1ccc(S(N)(=O)=O)cc1
93

Also, c1ccc([C@H]2CN3CCSC3=N2)cc1 please.
97.4

Let us now turn to O=C(Nc1ccc(CN2CCc3nc4cc(O)c(O)cc4cc32)cc1)c1ccc(Cl)c(Cl)c1
78.7

Consider next the molecule COc1ccc(-c2nc3ncccn3c2-c2nnc(-c3ccc(F)cc3)o2)cc1 in the same way.
96.7

Please give the result for OCC1OC(n2cnc3c(N/N=C\c4ccccn4)ncnc32)C(O)C1O (stereo unspecified) too.
11.3

Again, but for CSCCCNC(=O)c1ccc2c(c1)/C(=C/c1[nH]c(C)cc1C)C(=O)N2
41.8

Same question, COc1ccc(-c2nn(-c3cccc(NC(=O)Nc4cc(C(F)(F)F)cc(C(F)(F)F)c4)c3)cc2-c2ccncc2)cc1Cl this time
24.2

Can you check O=C1CC[C@@H]2CCCC[C@@H]2C1 next?
105

Check COc1cc(-c2nc(Nc3nc4ccccc4s3)[nH]c(=O)c2C#N)cc(OC)c1O too.
102

Another molecule: O=C(N/N=C\c1cc(Cl)ccc1[N+](=O)[O-])c1ccco1
105

###

Test system: A549/ATCC NSCLC
Experiment: NCI-60 one-dose screen, 48 h
Settings: 10 µM
About 83,000 compounds went through this panel and 20% of them were active in at least one assay; those are over-represented in the sample as a whole. Calls of active or inactive are those of the source. The calls were made as follows: active = growth percent below 10; inactive = the rest.
Parameter call: string, one of 1 (yes) = active, 0 (no) = inactive

// known answers, use as guide
[[record]]
smilesstring = "COc1ccc(/C=C2/CN(C(=O)c3ccc(C)cc3)C/C(=C\\c3ccc(OC)cc3)C2=O)cc1"
assignedlabel = "0 (no)"

[[record]]
smilesstring = "O=C(C[P+](c1ccccc1)(c1ccccc1)c1ccccc1)C[P+](c1ccccc1)(c1ccccc1)c1ccccc1"
assignedlabel = "1 (yes)"

[[record]]
smilesstring = "O=C(Nc1ccc(Cl)c(Cl)c1)Nc1c(Oc2ccc(Cl)c(Cl)c2)ccc(Cl)c1S(=O)(=O)O"
assignedlabel = "0 (no)"

[[record]]
smilesstring = "COc1ccc(/C=C/C(=O)Nc2ccc(-c3nc4ccc(OC)cc4s3)cc2)cc1"
assignedlabel = "0 (no)"

[[record]]
smilesstring = "COc1ccc(-c2nc3ccccn3c2-c2nnc(-c3cc(OC)c(OC)c(OC)c3)o2)cc1"
assignedlabel = "0 (no)"


Kindly provide the recorded test outcome for the following compound: COc1ccc2c(c1OC)O/C(=C\c1ncc([N+](=O)[O-])n1C)C2=O
0 (no)

Another compound: Cc1ccc(-c2n[nH]c(=O)c3noc(-c4ccc(C)cc4)c23)cc1
0 (no)

###

Tested on: SK-MEL-2 melanoma
Experiment: NCI-60 one-dose screen, 48 h (100 = growth as untreated, 0 = no growth, -100 = all killed)
Details: 10 µM
This is part of a sample that, as a whole, favours compounds with a hit. Of some 83,000 tested, about 20% had one in any assay.
Each entry below carries its recorded growth.
# value in %; strip the unit string

[[record]]
compound = "C#Cc1ccc(-n2c(/C=C/c3ccc(C(F)(F)F)cc3)nc3ncccc3c2=O)cc1"
assaymetric = "growth"
quantityunit = "%"
quantitativeresult = -37.1

[[record]]
compound = "O=C(O)c1ccc(Cl)cc1Nc1ccc(F)cc1"
assaymetric = "growth"
quantityunit = "%"
quantitativeresult = 93.4

[[record]]
compound = "CCN(CCCCCCN1CC(=O)N(CCCCCCN(CC)Cc2ccccc2OC)CC1=O)Cc1ccccc1OC"
assaymetric = "growth"
quantityunit = "%"
quantitativeresult = 63.4


Which growth value belongs to CCOC1(OCC)OC(c2ccccc2)=C(C#N)C(/C=C\c2ccccc2)C1(OCC)OCC (stereo unspecified) ?
95.3

Please answer likewise for O=C(O)c1ccc(P(=O)(O)O)c([N+](=O)[O-])c1
117

Also need CC(C)=CCc1cc(O)cc2c1OC(C=C(C)C)C1=C2C(=O)C2=C(C1=O)S(=O)(=O)CCN2 (stereo unspecified) , thanks.
28.8

And for O=C(N/N=C/c1ccccc1O)C(O)(c1ccccc1)c1ccccc1 ?
107

Entry O=C(/C(=C/c1ccccc1)CN1CCCCC1)c1ccccc1 please
-67

Note, next up: COc1ccc(OC)c(/C=C/c2nnc(Nc3ccc(Cl)cc3)o2)c1
101

Input Cc1ccc(C(=O)Nc2cccc(F)c2)cc1NC(=O)C1(c2ncnc3[nH]ccc23)CC1
14.5

Proceed to COc1ccc(-c2nnc(-c3c(-c4ccccc4)nc4ncccn34)o2)cc1OC
96.3

Okay, and Cc1occc1-c1nnc(SCC(=O)c2ccc(NC(=O)CC(C)C)cc2)o1 ?
90.8

Entry to check: c1ccc(C(NC2CC3CCC2C3)c2ccccc2)cc1 (stereo unspecified)
89.6

Now this one: N#CCCN1C/C(=C/c2ccccc2)C(=O)/C(=C/c2ccccc2)C1
62.3

Again, but for Cc1cc(N(CCCNc2ccnc3cc(Cl)ccc23)Cc2ccc3c(c2)OCO3)nc(N2CCOCC2)n1
32.4

And the next one, CC1(C)Cc2c(sc3ncn4nc(-c5ccc(O)cc5)nc4c23)CO1 ?
84.7

What do we get for COc1cc(CNc2ccccc2C(=O)N2CCN(C(=O)c3cc(-c4cc(OC)c(OC)c(OC)c4)n4nc(-c5ccccc5)cc4n3)CC2)cc(OC)c1OC ?
-0.722

Let us now turn to CC(C)(C#N)Nc1ccccc1
109

Subsequent entry: COc1cc(-c2cc(C(=O)N3CCN(C(=O)c4ccccc4NCc4ccco4)CC3)nc3cc(-c4ccccc4)nn23)cc(OC)c1OC
10.5

One more compound: COc1ccc(Nc2ccnc(NCCNc3ccnc4cc(Cl)ccc34)n2)cc1
71.8

Subsequent entry: CC(C)(C)c1cc(Br)cc(C(C)(C)C)c1O
118

And what about the compound COc1ccc(NC(=O)Cc2nc3nc4sc(C)c(C)c4c(=O)n3[nH]2)cc1 ?
103

O=C1C(c2ccccc2)C2C=CC(C2)N1O (stereo unspecified) ?
103

Moving on to O=C(Nc1ccncc1)C(=O)c1cn(S(=O)(=O)c2cccc3ccccc23)c2ccccc12
68.2

What do you get for CC(=O)c1cc(Cl)ccc1O ?
110

Continue with Nc1c(C(=O)Nc2ccccc2)sc2nc3c(cc12)C(O)CCC3 (stereo unspecified)
37.8
